assay: Experimental LogD (partition coefficient); conditions: not stated, Partition Coeff LogD
Positions of bridges follow the written chain, without caps; N, C: chain ends. Non-standard residues stand in square brackets, D forms with d. Residues, ends and D or L forms follow the SMILES beside them. Lys(N3) = [N-]=[N+]=NCCCC[C@H](N)C(=O)O; R8 = C=CCCCCCC[C@@](C)(N)C(=O)O; Cba = N[C@@H](CC1CCC1)C(=O)O; S5 = C=CCCC[C@](C)(N)C(=O)O; βAla = NCCC(=O)O
Would you please tag the item fulfilled when its logD is 3 or above, and not fulfilled when it is below?

molecule	class.assignment
CC(=O)N[C@@H](CCCCN=[N+]=[N-])C(=O)NCCC(=O)N[C@@H](CC(C)C)C(=O)N[C@H](C(=O)N[C@@H](Cc1ccccc1)C(=O)N[C@]1(C)CCCCCCC=CCCC[C@@](C)(C(=O)N[C@@H](CO)C(=O)N[C@@H](C)C(=O)N[C@@H](C)C(N)=O)NC(=O)[C@H](CC2CCC2)NC(=O)[C@H](CCC(N)=O)NC(=O)[C@H](C)NC(=O)[C@H](Cc2c[nH]c3cc(F)ccc23)NC(=O)[C@H](Cc2ccc(O)cc2)NC(=O)[C@H](CCC(=O)O)NC1=O)[C@@H](C)O	not fulfilled
CC(C)C[C@@H]1NC(=O)[C@H](C)NC(=O)[C@H](Cc2c[nH]c3ccccc23)NC(=O)[C@H](Cc2ccc(O)cc2)NC(=O)[C@H](CCC(=O)O)NC(=O)[C@](C)(NC(=O)[C@H](Cc2ccccc2)NC(=O)[C@H](CO)NC(=O)[C@@H](NC(=O)[C@H](CO)NC(=O)[C@@H](N)CCCCN=[N+]=[N-])[C@@H](C)O)CCCCCCC=CCCC[C@@](C)(C(N)=O)NC(=O)[C@H](CC(C)C)NC1=O	not fulfilled
CC(=O)N[C@@H](CCCCN=[N+]=[N-])C(=O)NCCC(=O)N[C@@H](CC(C)C)C(=O)N[C@H](C(=O)N[C@@H](Cc1ccccc1)C(=O)N[C@]1(C)CCCCCCC=CCCC[C@@](C)(C(=O)NC(C)(C)C(=O)N[C@@H](C)C(=O)N[C@@H](C)C(N)=O)NC(=O)[C@H](CC2CCC2)NC(=O)[C@H](CCC(N)=O)NC(=O)[C@H](C)NC(=O)[C@H](Cc2c[nH]c3ccccc23)NC(=O)[C@H](Cc2ccc(O)cc2)NC(=O)[C@H](CCC(=O)O)NC1=O)[C@@H](C)O	fulfilled

Hello, I need to know if CC(=O)N[C@@H](CCCCN=[N+]=[N-])C(=O)NCCC(=O)N[C@@H](CC(C)C)C(=O)N[C@H](C(=O)N[C@@H](Cc1ccccc1)C(=O)N[C@]1(C)CCCCCCC=CCCC[C@@](C)(C(=O)N[C@@H](CO)C(=O)N[C@H](C)C(=O)N[C@@H](C)C(N)=O)NC(=O)[C@H](CC2CCC2)NC(=O)[C@H](CCC(N)=O)NC(=O)[C@H](C)NC(=O)[C@H](Cc2c[nH]c3cc(Cl)ccc23)NC(=O)[C@H](Cc2ccc(O)cc2)NC(=O)[C@H](CCC(=O)O)NC1=O)[C@@H](C)O has measured logD not below 3. Thanks!
fulfilled

Hello, I need to know if CC(=O)N[C@@H](CCCCN=[N+]=[N-])C(=O)NCCC(=O)NCC(=O)N[C@H](C(=O)N[C@@H](Cc1ccccc1)C(=O)N[C@]1(C)CCCCCCC=CCCC[C@@](C)(C(=O)N[C@@H](CO)C(=O)N[C@@H](C)C(=O)N[C@@H](C)C(N)=O)NC(=O)[C@H](CC2CCC2)NC(=O)[C@H](CCC(N)=O)NC(=O)[C@H](C)NC(=O)[C@H](Cc2c[nH]c3ccccc23)NC(=O)[C@H](Cc2ccc(O)cc2)NC(=O)[C@H](CCC(=O)O)NC1=O)[C@@H](C)O [MP-261] (Ac-[Lys(N3)][βAla]GTF[R8]EYWAQ[Cba][S5]SAA-NH2; staple 6-13) has measured logD not below 3. Thanks!
not fulfilled

FYI, the data here is from paper PMC10786919.
